Each item that follows carries a reported GI50.
- STUDY TARGET: BaF3 BRAF-KIAA1549 fusion cells (Homo sapiens)
- Construct: The BRAF-KIAA1549 fusion mutant was subcloned into pMXs-IRES-Blasticidin (RTV-016, Cell Biolabs, San Diego, CA); fused on or other part: Q9HCM3 (UPF0606 protein KIAA1549)
- Sequence (P15056 whole entry, change not shown, the tested form may be a part): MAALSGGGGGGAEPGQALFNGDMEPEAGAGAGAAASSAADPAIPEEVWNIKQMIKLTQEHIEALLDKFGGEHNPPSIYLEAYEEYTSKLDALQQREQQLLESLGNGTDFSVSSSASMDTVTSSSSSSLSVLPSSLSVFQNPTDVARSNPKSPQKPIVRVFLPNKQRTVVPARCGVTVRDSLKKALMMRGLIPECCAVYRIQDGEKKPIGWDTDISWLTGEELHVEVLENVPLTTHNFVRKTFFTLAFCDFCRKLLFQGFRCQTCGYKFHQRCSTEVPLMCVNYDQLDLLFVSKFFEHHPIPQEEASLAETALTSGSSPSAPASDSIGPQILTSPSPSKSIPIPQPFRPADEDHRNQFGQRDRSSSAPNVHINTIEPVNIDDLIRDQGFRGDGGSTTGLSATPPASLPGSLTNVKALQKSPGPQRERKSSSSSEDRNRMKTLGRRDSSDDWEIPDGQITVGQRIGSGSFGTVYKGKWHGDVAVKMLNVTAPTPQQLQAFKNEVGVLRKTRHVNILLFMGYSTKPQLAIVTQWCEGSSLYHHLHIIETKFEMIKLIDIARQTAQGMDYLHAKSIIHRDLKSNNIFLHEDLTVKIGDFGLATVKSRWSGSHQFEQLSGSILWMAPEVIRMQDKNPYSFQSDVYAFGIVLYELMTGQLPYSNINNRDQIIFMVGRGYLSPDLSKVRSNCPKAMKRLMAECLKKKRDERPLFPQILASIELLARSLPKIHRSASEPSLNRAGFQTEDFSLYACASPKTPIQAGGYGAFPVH
- TEST NAME: BaF3 BRAF-KIAA1549 fusion cell proliferation assay (CellTiterGlo)
- Assay type: cell-based
- SETUP CONDITIONS: 96 hours incubation, potency code
- Experimental: Retroviral Production: The BRAF-KIAA1549 fusion mutant was subcloned into pMXs-IRES-Blasticidin (RTV-016, Cell Biolabs, San Diego, CA). Retrovirus was produced by transfection of HEK 293T cells with the retroviral BRAF mutant expression vector pMXs-IRES-Blasticidin (RTV-016, Cell Biolabs), pCMV-Gag-Pol vector and pCMV-VSV-G-Envelope vector. Briefly, HEK 293T cells were plated in Poly-D-lysine coated 6-well plate (2.5×10^5 cells per well) and incubated overnight. […]

                                   molecule  recorded_measurement
0  Cc1ccc(NC(=O)c2nccc(C(F)(F)F)c2C)cc1Nc1ncccc1-c1ncnc2[nH]cnc12               < 20 nM
1  Cc1nc2c(-c3cccnc3Nc3cc(NC(=O)c4ccnc(C(C)(C)C#N)c4)ccc3C)ncnc2[nH]1               < 20 nM
2  Cc1ccc(NC(=O)c2cc(C(F)(F)F)c(OC3COC3)cn2)cc1Nc1ncccc1-c1ncnc2[nH]cnc12               < 20 nM
3  Cc1ccc(NC(=O)c2ccc(Cl)c(C(C)(C)C#N)c2)cc1Nc1ncccc1-c1ncnc2[nH]cnc12          20 to 100 nM
4  C#Cc1cc(C(=O)Nc2ccc(C)c(Nc3ncccc3-c3ncnc4[nH]cnc34)c2)ccc1Cl               < 20 nM

Entry `Cc1c(F)cc(NC(=O)c2cc(C(F)(F)F)ccn2)cc1Nc1ncccc1-c1ncnc2[nH]cnc12` , GI50 reported as 20 to 100 nM

GI50 measured on `Cc1ccc(C(=O)Nc2ccc(C)c(Nc3ncccc3-c3ncnc4[nH]cnc34)c2)cc1C#N` = < 20 nM
